test system: HL-1; assay: relative cell viability (CellTiter-Glo) vs DMSO control (% of DMSO control); higher = more viable cells; details: oxygen condition: normoxia 72 h; 1000 nM
Structures can show the parent of a compound that is named as a salt.
Give measured relative cell viability for each item. Keep answers brief.
Respond numerically, and do not add a unit to the figure.

Entry CCOC(=O)[C@H](CCc1ccccc1)N[C@@H](C)C(=O)N1Cc2cc(OC)c(OC)cc2C[C@H]1C(=O)O [Moexipril HCl] needs its relative cell viability filled in; supply it.
90.7

State its relative cell viability: CC(C)NCC(O)COc1ccc(CCOCC2CC2)cc1 (configuration not stated) [Betaxolol hydrochloride]
86.5

Complete the entry with relative cell viability for Cc1ccc(S(=O)(=O)NC(=O)NN2CCCCCC2)cc1 [Tolazamide]
106

Name the recorded relative cell viability of the item O=C(O)/C=C/c1ccc(Cn2ccnc2)cc1 [Ozagrel] in your answer.
90

Please supply the value of reported relative cell viability for the item COc1ccc(-c2nc3cc(C4=NNC(=O)CC4C)ccc3[nH]2)cc1 (configuration not stated)
114

Output measured relative cell viability for this item: COC(=O)C1=C(C)NC(C)=C(C(=O)OCCN2CCN(C(c3ccccc3)c3ccccc3)CC2)C1c1cccc([N+](=O)[O-])c1 (configuration not stated)
103

Look up relative cell viability of CC(=O)OCC[N+](C)(C)C [Acetylcholine chloride] and report it.
104

Annotate the molecule `CC[C@H](C)C(=O)O[C@H]1CCC=C2C=C[C@H](C)[C@H](CC[C@@H]3C[C@@H](O)CC(=O)O3)[C@H]21` with its measured relative cell viability.
106

Using the record for CN1CCOC(c2ccccc2)c2ccccc2C1 (configuration not stated) [Nefopam HCl] , state its measured relative cell viability.
44.4

Return reported relative cell viability. Input molecule: NS(=O)(=O)c1cc2c(cc1Cl)N=CNS2(=O)=O [Chlorothiazide]
103

Let me know recorded relative cell viability for `CCNC(=O)CCC/C=C\C[C@@H]1[C@@H](/C=C/[C@@H](O)CCc2ccccc2)[C@H](O)C[C@@H]1O` , thanks.
105

In one line, give reported relative cell viability of the entry `Cc1cccc(Nc2ccccc2C(=O)O)c1C` .
111

Answer with reported relative cell viability of C[C@]12CC[C@@H]3c4ccc(O)cc4C[C@@H](CCCCCCCCC[S+]([O-])CCCC(F)(F)C(F)(F)F)[C@H]3[C@@H]1CC[C@@H]2O (some centres not stated)
122

Return relative cell viability for the following molecule: CC(C)NC[C@H](O)COc1ccc(CCOCC2CC2)cc1 [Levobetaxolol HCl]
108

Determine its reported relative cell viability: COc1ccc(CC2c3cc(OC)c(OC)cc3CC[N+]2(C)CCC(=O)OCCCCCOC(=O)CC[N+]2(C)CCc3cc(OC)c(OC)cc3C2Cc2ccc(OC)c(OC)c2)cc1OC (configuration not stated) [Atracurium besylate]
95.7

// fetch relative cell viability given entry `Cc1c(O)c(=O)ccn1C`
107

Report measured relative cell viability; entry is CCOC(=O)C1=C(COCCN)NC(C)=C(C(=O)OC)C1c1ccccc1Cl (configuration not stated) [Amlodipine besylate]
106

Supply measured relative cell viability of Clc1ccc(C(Cn2ccnc2)OCc2ccc(Sc3ccccc3)cc2)c(Cl)c1 (configuration not stated) [Fenticonazole nitrate] in your reply.
101

Provide only the value of recorded relative cell viability for `O=c1oc2c(O)c(O)cc3c(=O)oc4c(O)c(O)cc1c4c23`
118

Return relative cell viability (reported value) for this molecule: `CN(C)/N=N/c1[nH]cnc1C(N)=O`
107

Return relative cell viability (reported value) for this molecule: CCOC(=O)C1=C(COCCN)NC(C)=C(C(=O)OC)C1c1ccccc1Cl (configuration not stated) [Amlodipine]
93.2

Return relative cell viability for the following molecule: CCN(CC)CCNC(C(=O)OCCC(C)C)c1ccccc1 (configuration not stated) [Camylofin Chlorhydrate]
103

Determine from records and report relative cell viability for COC(=O)C1=C(C)NC(C)=C(C(=O)OCCN(C)Cc2ccccc2)C1c1cccc([N+](=O)[O-])c1 (configuration not stated) [Nicardipine HCl]
105

Return value of relative cell viability for input CN(C)C(=N)NC(=N)N [Metformin hydrochloride] , no commentary.
104

Kindly indicate its recorded relative cell viability. Item: `Cc1cc(C2CCCCC2)n(O)c(=O)c1`
20

Look up relative cell viability of `Nc1ccn([C@@H]2O[C@H](CO)[C@@H](O)[C@@H]2O)c(=O)n1` and report it.
35.7

Please give the documented relative cell viability of O=C(Nc1ccccc1)OCC(CN1CCCCC1)OC(=O)Nc1ccccc1 (configuration not stated) [Diperodon HCl]
103

Hello, please tell me recorded relative cell viability for this one: `Cc1cc2c(cc1S(N)(=O)=O)S(=O)(=O)CCC2`
102

Given O=C1c2c(O)ccc(O)c2C(=O)c2c(NCCNCCO)ccc(NCCNCCO)c21 [Mitoxantrone Hydrochloride] , respond with its relative cell viability.
3.59

Using the record for CC[C@H]1OC(=O)C[C@@H](O)[C@H](C)[C@@H](O[C@@H]2O[C@H](C)[C@@H](O[C@H]3C[C@@](C)(O)[C@@H](O)[C@H](C)O3)[C@H](N(C)C)[C@H]2O)[C@@H](CC=O)C[C@@H](C)C(=O)/C=C/C(C)=C/[C@@H]1CO[C@@H]1O[C@H](C)[C@@H](O)[C@@H](OC)[C@H]1OC [Tylosin tartrate] , state its measured relative cell viability.
100

Identify relative cell viability associated with the molecule CNNCc1ccc(C(=O)NC(C)C)cc1 [Procarbazine HCl]
97.9

Quickly give me recorded relative cell viability for `Cc1cn(-c2cc(NC(=O)c3ccc(C)c(Nc4nccc(-c5cccnc5)n4)c3)cc(C(F)(F)F)c2)cn1`
104
